Dear all, this message contains ECmax (-fold induction over basal) results, target or system GPR39 (Homo sapiens).
Square brackets hold non-standard residues; d marks the D form. Peptide text beside a SMILES is read from it. * marks the point of attachment. His(Trt) = N[C@@H](Cc1cn(C(c2ccccc2)(c2ccccc2)c2ccccc2)cn1)C(=O)O; dHis(Trt) = N[C@H](Cc1cn(C(c2ccccc2)(c2ccccc2)c2ccccc2)cn1)C(=O)O; His(τ-CHPh2) = N[C@@H](Cc1cn(C(c2ccccc2)c2ccccc2)cn1)C(=O)O; Biotin = O=C1N[C@H]2[C@H](CS[C@H]2CCCCC(=O)*)N1; His(τ-Bzl) = N[C@@H](Cc1cn(Cc2ccccc2)cn1)C(=O)O; Tyr(3-Cl) = N[C@@H](Cc1ccc(O)c(Cl)c1)C(=O)O; dPhe(4-Cl) = N[C@H](Cc1ccc(Cl)cc1)C(=O)O; dPhe(4-Me) = Cc1ccc(C[C@@H](N)C(=O)O)cc1; Octanoyl = CCCCCCCC(=O)*

Some solved cases for reference:
{"compound": "CCCCCCCC(=O)NCCCC[C@H](NC(=O)[C@@H](N)Cc1cn(CCc2ccccc2)cn1)C(=O)N[C@@H](Cc1ccccc1)C(=O)N[C@@H](Cc1ccc(O)cc1)C(=O)O [HKFY-19]", "parameterMeasured": "ECmax (-fold induction over basal)", "experimentalResult": "18 ± 1.7 -fold induction over basal"}
{"compound": "CCCCCCCC(=O)NCCCC[C@H](NC(=O)[C@H](CO)NC(=O)CNC(=O)[C@@H](N)Cc1cn(C(c2ccccc2)(c2ccccc2)c2ccccc2)cn1)C(=O)N[C@@H](Cc1ccccc1)C(=O)N[C@@H](Cc1ccc(O)cc1)C(=O)O [HKFY-53] (H-[His(Trt)]GSK(Octanoyl)FY-OH)", "parameterMeasured": "ECmax (-fold induction over basal)", "experimentalResult": "8 ± 2.12 -fold induction over basal"}
{"compound": "CCCCCCCC(=O)NCCCC[C@H](NC(=O)[C@@H](N)Cc1cn(C(c2ccccc2)(c2ccccc2)c2ccccc2)cn1)C(=O)N[C@@H](Cc1ccccc1)C(=O)N[C@@H](Cc1ccc(O)cc1)C(=O)N[C@@H](CCC(N)=O)C(=O)N[C@@H](CC(N)=O)C(=O)N[C@@H](CCC(N)=O)C(=O)N[C@@H](C)C(=O)N[C@@H](CCCNC(=N)N)C(=O)N[C@@H](Cc1ccccc1)C(N)=O [HKFY-43] (H-[His(Trt)]K(Octanoyl)FYQNQARF-NH2)", "parameterMeasured": "ECmax (-fold induction over basal)", "experimentalResult": "12.1 ± 0.02 -fold induction over basal"}

In: // ECmax (-fold induction over basal) lookup, key: CCCCCCCC(=O)NCCCC[C@H](NC(=O)[C@@H](N)Cc1cn(S(=O)(=O)c2ccc(C)cc2)cn1)C(=O)N[C@H](Cc1ccc(C)cc1)C(=O)N[C@@H](Cc1ccc(O)cc1)C(=O)O
Out: 15.9 ± 4.12 -fold induction over basal

In: How about CCCCCCCC(=O)NCCCC[C@H](NC(=O)[C@@H](N)Cc1cn(C(c2ccccc2)c2ccc(O)cc2)cn1)C(=O)N[C@H](Cc1ccc(C)cc1)C(=O)N[C@@H](Cc1ccc(O)cc1)C(=O)O (stereo partly shown) ?
Out: 18.3 ± 2.2 -fold induction over basal

In: // repeat for CCCCCCCC(=O)NCCCC[C@H](NC(=O)[C@@H](N)Cc1cn(C(c2ccccc2)c2ccccc2)cn1)C(=O)N[C@H](Cc1ccc(C)cc1)C(=O)N[C@@H](Cc1ccc(O)c(Cl)c1)C(=O)O [HKFY-67] (H-[His(τ-CHPh2)]K(Octanoyl)[dPhe(4-Me)][Tyr(3-Cl)]-OH) and report
Out: 10.2 ± 1.51 -fold induction over basal

In: Continue with CCCCCCCC(=O)NCCCC[C@H](NC(=O)[C@H](Cc1cn(C(c2ccccc2)(c2ccccc2)c2ccccc2)cn1)NC(=O)CCCC[C@@H]1SC[C@@H]2NC(=O)N[C@@H]21)C(=O)N[C@@H](Cc1ccccc1)C(=O)N[C@@H](Cc1ccc(O)cc1)C(=O)O [HKFY-2] (Biotin-[His(Trt)]K(Octanoyl)FY-OH)
Out: 15 ± 1.87 -fold induction over basal

In: Moving on to the next compound: CCCCCCCC(=O)NCCCC[C@@H](NC(=O)[C@@H](N)Cc1cn(C(c2ccccc2)(c2ccccc2)c2ccccc2)cn1)C(=O)N[C@H](Cc1ccc(Cl)cc1)C(=O)N[C@@H](Cc1ccc(O)cc1)C(=O)O [HKFY-16] (H-[His(Trt)][dK](Octanoyl)[dPhe(4-Cl)]Y-OH)
Out: 27.9 ± 3.4 -fold induction over basal

In: Record: CCCCCCCC(=O)NCCCC[C@H](NC(=O)[C@@H](N)Cc1cn(Cc2ccccc2)cn1)C(=O)N[C@@H](Cc1ccccc1)C(=O)N[C@@H](Cc1ccc(O)cc1)C(=O)O [HKFY-3] (H-[His(τ-Bzl)]K(Octanoyl)FY-OH)
Out: 9.2 ± 2.58 -fold induction over basal

In: What do we get for CCCCCCCC(=O)NCCCC[C@H](NC(=O)[C@H](N)Cc1cn(C(c2ccccc2)(c2ccccc2)c2ccccc2)cn1)C(=O)N[C@H](Cc1ccc(Cl)cc1)C(=O)N[C@H](Cc1ccc(O)cc1)C(=O)O [HKFY-14] (H-[dHis(Trt)]K(Octanoyl)[dPhe(4-Cl)][dY]-OH) ?
Out: 20.9 ± 1.4 -fold induction over basal

In: And the next one, CCCCCCCC(=O)NCCCC[C@H](NC(=O)[C@@H](N)Cc1cn(C(c2ccccc2)c2ccccc2)cn1)C(=O)O ?
Out: 11.2 ± 1.4 -fold induction over basal
